- Target: Mu-type opioid receptor (Homo sapiens)
- Assay protocol: Partial agonist activity at mu opioid receptor (unknown origin) expressed in CHO cell membranes incubated for 1 hr by [35S]GTPgammaS binding assay relative to DAMGO
- Assay type: functional
- Condition description: Membrane
# True = Emax below 20% (exclusive); False = Emax at/above 20%

Mol: O=C(N[C@H]1C=C[C@@]2(O)[C@H]3Cc4ccc(O)c5c4[C@@]2(CCN3CC2CC2)[C@H]1O5)c1n[nH]c2ccccc12
Class: True
--
Mol: O=C(N[C@@H]1C=C[C@@]2(O)[C@H]3Cc4ccc(O)c5c4[C@@]2(CCN3CC2CC2)[C@H]1O5)c1c[nH]c2ccncc12
Class: True
--
Mol: O=C(N[C@@H]1C=C[C@@]2(O)[C@H]3Cc4ccc(O)c5c4[C@@]2(CCN3CC2CC2)[C@H]1O5)c1c[nH]c2cnccc12
Class: False
--
Mol: O=C(N[C@@H]1C=C[C@@]2(O)[C@H]3Cc4ccc(O)c5c4[C@@]2(CCN3CC2CC2)[C@H]1O5)c1c[nH]c2cccnc12
Class: False
--
Mol: O=C(N[C@H]1C=C[C@@]2(O)[C@H]3Cc4ccc(O)c5c4[C@@]2(CCN3CC2CC2)[C@H]1O5)c1c[nH]c2cccnc12
Class: True
--
Mol: O=C(N[C@H]1C=C[C@@]2(O)[C@H]3Cc4ccc(O)c5c4[C@@]2(CCN3CC2CC2)[C@H]1O5)c1c[nH]c2cnccc12
Class: False
--
Mol: O=C(N[C@H]1C=C[C@@]2(O)[C@H]3Cc4ccc(O)c5c4[C@@]2(CCN3CC2CC2)[C@H]1O5)c1c[nH]c2ccncc12
Class: False
--
Mol: O=C(N[C@H]1C=C[C@@]2(O)[C@H]3Cc4ccc(O)c5c4[C@@]2(CCN3CC2CC2)[C@H]1O5)c1c[nH]c2ncccc12
Class: False
--
Mol: O=C(N[C@@H]1C=C[C@@]2(O)[C@H]3Cc4ccc(O)c5c4[C@@]2(CCN3CC2CC2)[C@H]1O5)c1n[nH]c2ccccc12
Class: False
